Entries annotated with measured NF-kB SEAP reporter activity
# Test system: RAW-Dual
# ASSAY_TEXT: NF-kB SEAP reporter activity, fold change vs agonist alone; higher = enhanced NF-kB activity
# MEASUREMENT_SETUP: library stock concentration (final ~1000-fold dilution): 10 mM; cytotoxicity flag (confluency mask): not cytotoxic; agonist: MPLA (TLR4) […]
The full ranking holds about 2,900 compounds; the median of “NF-kB SEAP reporter activity, fold change vs agonist alone” is about 0.99, and the highest 2% start at about 2.6. The entries come from a sample that favours the highest values as a whole.
// response body must contain only the number

The following compounds have reported results that may help.
COMPOUND | OBSERVED_MEASUREMENT
CCCC(=O)Nc1ccc(OCC(O)CNC(C)C)c(C(C)=O)c1.Cl (stereo unspecified) | 1.08
O=C(O)c1ccc(-c2c[nH]c3ncc(-c4ccccc4)cc23)cc1C1CCCC1 | 1.16
N#CCNC(=O)c1ccc(-c2ccnc(Nc3ccc(N4CCOCC4)cc3)n2)cc1 | 0.925
Cl.Nc1ccc(Cl)cc1C(=O)C(F)(F)F | 1.24
COc1ccccc1N1CCN(CC(O)COc2cccc3ccccc23)CC1.Cl.Cl (stereo unspecified) | 0.766

Specify measured NF-kB SEAP reporter activity for `O=C(O)CCN1C(=O)/C(=C2/C(=O)Nc3ccc(Cl)cc32)SC1=S` .
1.18

Answer with the recorded NF-kB SEAP reporter activity of `N#Cc1cc(-c2ccnc(Nc3ccc(N4CCOCC4)cc3)n2)ccc1OC1CCOCC1` only.
2.02

Identify measured NF-kB SEAP reporter activity associated with `O=C(Nc1cc(C(F)(F)F)ccc1N1CCCCC1)c1ccncc1`
1.01

Please indicate NF-kB SEAP reporter activity recorded for `O=c1cc(-c2ccc(O)c(O)c2O)oc2ccccc12`
1.05

Using known records, supply NF-kB SEAP reporter activity for Cc1nccn1CC1CCc2c(c3ccccc3n2C)C1=O.Cl (stereo unspecified)
0.785

Tell me measured NF-kB SEAP reporter activity for CS(=O)(=O)n1cc2c(n1)CN(C1COC(c3cc(F)ccc3F)C(N)C1)C2 (stereo unspecified) please.
1.03
